Tested on: PPARg:RXRa 30nM:10nM, anti-RXR (NR concentration 30 nM, RXRa partner concentration 10 nM)
assay_info: PBM binding z-score (relative to random genomic background probes); higher = stronger binding; sequences stand for … in GC…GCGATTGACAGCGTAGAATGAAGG
Below: a set of entries, each annotated with reported PBM binding z-score.
experimental_readout: PBM binding z-score

{"macromolecule_sequence": "TCTAATTGGTCACGGAGGTCACACACGACGGGTA", "value_measured": 4.41}
{"macromolecule_sequence": "ATCACTAGGTAAGACTCAGTTCAGTGAAGAACGC", "value_measured": 0.287}
{"macromolecule_sequence": "ACACCAAGGTGATCGTGAGGTCGTTGATACTAAC", "value_measured": -0.275}
{"macromolecule_sequence": "CTCGAAAGGTCGGGCTCAGGTGAGTATACCAAAC", "value_measured": -0.168}
{"macromolecule_sequence": "TCTTGTAGATCAATAGAGGTGAAGAAAGTGCGCT", "value_measured": 2.84}
{"macromolecule_sequence": "CGAACTAGGTCAAGGATAGTGAATCTCCGCACGC", "value_measured": 4.24}
{"macromolecule_sequence": "AGAACGAGGGCAATGAGTTGATTGCACGGGTGGC", "value_measured": -0.179}
{"macromolecule_sequence": "CCTTACGGGTCGCGAGGTTATAGCACGACGAGCG", "value_measured": 0.056}
{"macromolecule_sequence": "CGTCCAAGGCCAGCAGGTCAGTGAAAGCGACGTG", "value_measured": -0.911}
{"macromolecule_sequence": "CCTCGGAGGACAGAGGGTCAGAGCTGTCCGCTTT", "value_measured": -0.79}
{"macromolecule_sequence": "CTACCGAGGTGAACAAGGTCGTTGATTACTATTC", "value_measured": 0.0798}
{"macromolecule_sequence": "ACTCGGAGGACAAAGGTCAGCGCTACGCCAGTGA", "value_measured": 7.19}
{"macromolecule_sequence": "CCTTACGGATCAAGGTTATAGCACGGGTGGTACG", "value_measured": -0.114}
{"macromolecule_sequence": "TCTAGCAGACCAGAGGGTCACTCAAGAGGTACGG", "value_measured": 1.8}
{"macromolecule_sequence": "ATCTCTAGGTAACCAGGTTCAGTGAATGCCGAAC", "value_measured": 0.15}
{"macromolecule_sequence": "CCGACTGAGGCATAAGGTTACCATAAGCCAGCCC", "value_measured": -0.0351}
{"macromolecule_sequence": "ACTAGCAGGCCAAGTTAGGGTCACTCAAACAAAG", "value_measured": -0.00931}
{"macromolecule_sequence": "CGAACGAGGGCATGAATTGATAGCAAATGCCGAT", "value_measured": 0.00744}
{"macromolecule_sequence": "TTATATAGGTAAAGGTGAAAGTCGAACGATATGA", "value_measured": 4.77}
{"macromolecule_sequence": "CCTATTGGTTGACCATAAGGGCAACCGAAGCTCG", "value_measured": -0.263}
{"macromolecule_sequence": "CCGACTGGGGCATAAGGTTACCATCAGCCAGCCC", "value_measured": 1.18}
{"macromolecule_sequence": "TCTAGTTGGTCAAAGGTCACATACTCGAAATGCG", "value_measured": 9.93}
{"macromolecule_sequence": "CATTACGGGTCACTCCAGGTTATAGCATCGGAGT", "value_measured": 1.56}
{"macromolecule_sequence": "CCTATTAGTTGACCATAAGGGCATCCGAAGCTCG", "value_measured": -0.0651}
{"macromolecule_sequence": "GGAACGAGGGCAAAGTTGATAGCCTCTGTCGACG", "value_measured": 5.66}
{"macromolecule_sequence": "CCTTACGGGTCACTCCAGCTTATAGCATCGGAGT", "value_measured": 0.864}
